Measured VAR-MEAN (increase in ADR fluorescence), line DC-3F/AD by item
- System: line DC-3F/AD
- testDetails: Flow cytometry: intracellular accumulation of adriamycin by cells of the line DC-3F/AD
- Assay type: cell-based, Chinese hamster
- reportedConditions: 10 μM compound; ADR 50 μM; 5 hours
readoutName: VAR-MEAN (increase in ADR fluorescence), line DC-3F/AD

• C=CCNc1nc(NCCC)nc(N2CCC(NCC3c4ccccc4CCc4ccccc43)CC2)n1 [Example 5] = 24.9
• C=CCNc1nc(NCC=C)nc(NCC(O)CN2CCC(NCC3c4ccccc4CCc4ccccc43)CC2)n1 (centres unmarked) [Example 17] = 12.6
• C=CCNc1nc(NCC)nc(N2CCC(NCC3c4ccccc4CCc4ccccc43)CC2)n1 [Example 22] = 24.9
• C=CCNc1nc(NCC=C)nc(NCCN2CCC(NC3c4ccccc4CCc4ccccc43)CC2)n1 [Example 12] = 18.3
• C=CCNc1nc(NCC=C)nc(NCCN2CCC(NCC3c4ccccc4CCc4ccccc43)CC2)n1 [Example 15] = 12.4
• C=CCNc1nc(NCC=C)nc(N2CCC(NCC3c4ccccc4C=Cc4ccccc43)CC2)n1 [Example 11] = 25.8
• C=CCNc1nc(NCC=C)nc(N2CCN(NCC3c4ccccc4CCc4ccccc43)CC2)n1 [Example 24] = 28.2
• C=CCNc1nc(NCC=C)nc(N2CCC(NCC3c4ccccc4CCc4ccccc43)CC2)n1 [Example 3] = 29.6
• C=CCNc1nc(NCC=C)nc(NCCN2CCN(C3c4ccccc4CCc4ccccc43)CC2)n1 [Example 2] = 10.5
• C=CCNc1nc(NCC=C)nc(N2CCC(CNC3c4ccccc4CCc4ccccc43)CC2)n1 [Example 23] = 20.5
• C=CCNc1nc(NCC=C)nc(N2CCC(NCC3c4ccccc4Oc4ccccc43)CC2)n1 [Example 9] = 25.7
• C=CCNc1nc(N)nc(N2CCC(NCC3c4ccccc4CCc4ccccc43)CC2)n1 [Example 18] = 11.0
• C=CCNc1nc(NCC=C)nc(NCC2CCN(CC3c4ccccc4CCc4ccccc43)CC2)n1 [Example 8] = 21.0
• C=CCNc1nc(NCC=C)nc(N2CCC(N(C)CC3c4ccccc4CCc4ccccc43)CC2)n1 [Example 30] = 19.0
